Each entry below lists one item and its recorded mortality at 5 ppm value.
# Tested on: Aphis gossypii
# procedure text: Insecticidal activity against Aphis gossypii (cotton aphid) infested one week old Crookneck squash plants assessed as insect mortality at 5 ppm measured after 3 days post compound application under green house conditions
# Format: functional
# assay context: 72 h
measured metric: mortality at 5 ppm (%)

Cc1cc(-c2ccc(OC(F)(F)C(F)Br)cc2)sc1-c1nc(-c2c(F)cccc2Cl)nn1C (stereo unspecified) | 89
Cn1nc(-c2c(F)cccc2Cl)nc1-c1sc(-c2ccc(OC(F)(F)C(F)Br)cc2)cc1Cl (stereo unspecified) | 54
Cn1nc(-c2c(F)cccc2Cl)nc1-c1ccc(-c2ccc(OC(F)(F)F)cc2)s1 | 47
Cn1nc(-c2c(F)cccc2Cl)nc1-c1sc(-c2ccc(OC(F)(F)C(F)Cl)cc2)cc1Cl (stereo unspecified) | 72
Cc1cc(-c2cccc(OC(F)(F)C(F)Cl)c2)sc1-c1nc(-c2c(F)cccc2Cl)nn1C (stereo unspecified) | 91
Cn1nc(-c2c(F)cccc2Cl)nc1-c1sc(-c2ccc(OC(F)(F)F)cc2)cc1Cl | 80

====

# System: Spodoptera exigua
# procedure text: Insecticidal activity against Spodoptera exigua second-instar larvae feeded on compound treated lepidopteran diet assessed as insect mortality measured 5 days post compound treatment under green house conditions
# Type: functional
# assay context: Spodoptera exigua, 120 h
The compounds listed here are annotated with their LC50.
measured metric: LC50

Cc1cc(-c2ccc(OC(F)(F)C(F)Cl)cc2)sc1-c1nc(-c2c(F)cccc2Cl)nn1C (stereo not drawn) | < 1.79 µg/mL
Cc1cc(-c2ccc(OC(F)(F)F)cc2)sc1-c1nc(-c2c(F)cccc2Cl)nn1C | < 1.6 µg/mL
CC1(C)C(C=C(Cl)Cl)C1C(=O)OC(C#N)c1cccc(Oc2ccccc2)c1 (stereo not drawn) | 1.6 µg/mL

====

# Test system: Spodoptera exigua
# procedure text: Insecticidal activity against Spodoptera exigua second-instar larvae feeded on 400 ppm compound treated lepidopteran diet assessed as insect mortality measured 5 days post compound treatment under green house conditions
# Format: functional
# assay context: at 400 ppm
measured metric: mortality (%)

COc1ccc(-c2ccc(-c3nc(-c4c(F)cccc4F)nn3C)s2)cc1 | 90
Cc1cc(-c2ccc(F)c(Cl)c2)sc1-c1nc(-c2c(F)cccc2Cl)nn1C | 80
Cc1c(-c2nc(-c3c(F)cccc3Cl)nn2C)sc(Cl)c1-c1ccc(OC(F)(F)F)cc1 | 90
Cc1c(-c2ccc(C(F)(F)F)cc2)csc1-c1nc(-c2c(F)cccc2Cl)nn1C | 60
Cc1cc(-c2cccc(OC(F)(F)F)c2)sc1-c1nc(-c2c(F)cccc2Cl)nn1C | 80
Cc1c(-c2ccc(OC(F)(F)C(F)C(F)(F)F)cc2)csc1-c1nc(-c2c(F)cccc2Cl)nn1C (centres undefined) | 60
Cc1cc(-c2ccc(OC(F)(F)F)cc2)sc1-c1nc(-c2c(F)cccc2Cl)nn1C | 90
Cc1cc(-c2ccc(C(C)C)cc2)sc1-c1nc(-c2c(F)cccc2Cl)nn1C | 70
Cc1c(-c2ccc(OC(F)(F)C(F)Br)cc2)csc1-c1nc(-c2c(F)cccc2Cl)nn1C (centres undefined) | 90

====

# Test system: Heliothis virescens
# procedure text: Insecticidal activity against Heliothis virescens (tobacco budworm) second-instar larvae infested on compound pre-treated cotton cotyledon disk assessed as insect mortality measured 5 days post compound treatment under green house conditions
# Format: functional
# assay context: Heliothis virescens
measured metric: LC50 (mg/L)

Cc1cc(-c2ccc(OC(F)(F)C(F)Br)cc2)sc1-c1nc(-c2c(F)cccc2Cl)nn1C (configuration not stated) | 3.93
Cc1cc(-c2ccc(OC(F)(F)F)cc2)sc1-c1nc(-c2c(F)cccc2Cl)nn1C | 225
Cn1nc(-c2c(F)cccc2Cl)nc1-c1sc(-c2ccc(OC(F)(F)C(F)Br)cc2)cc1Cl (configuration not stated) | 53.7
Cc1cc(-c2cccc(OC(F)(F)C(F)Cl)c2)sc1-c1nc(-c2c(F)cccc2Cl)nn1C (configuration not stated) | 4.38
CC1(C)C(C=C(Cl)Cl)C1C(=O)OC(C#N)c1cccc(Oc2ccccc2)c1 (configuration not stated) | 1.3
Cc1cc(-c2ccc(Cl)c(F)c2)sc1-c1nc(-c2c(F)cccc2Cl)nn1C | 19.4
Cc1c(-c2ccc(OC(F)(F)C(F)Cl)cc2)csc1-c1nc(-c2c(F)cccc2Cl)nn1C (configuration not stated) | 4.38

====

# Test system: Trichoplusia ni
# procedure text: Insecticidal activity against Trichoplusia ni (cabbage looper) second-instar larvae infested on 400 ppm compound pre-treated cabbage leaf disk assessed as insect mortality measured 5 days post compound treatment under green house conditions
# Format: functional
# assay context: at 400 ppm
Examples of compounds with documented mortality follow.
measured metric: mortality

Cn1nc(-c2c(F)cccc2F)nc1-c1ccc(-c2ccc(OC(F)(F)F)cc2)s1 | 90%
Cn1nc(-c2c(F)cccc2Cl)nc1-c1cc(Br)c(-c2ccc(OC(F)(F)F)cc2)s1 | 90%
Cc1cc(-c2ccc(Cl)cc2F)sc1-c1nc(-c2c(F)cccc2Cl)nn1C | 90%
Cc1cc(-c2ccc(C(C)C)cc2)sc1-c1nc(-c2c(F)cccc2Cl)nn1C | 90%
CSc1ccc(-c2cc(Cl)c(-c3nc(-c4c(F)cccc4Cl)nn3C)s2)cc1 | 80%
Cc1cc(-c2cccc(C(F)(F)F)c2)sc1-c1nc(-c2c(F)cccc2Cl)nn1C | 90%
Cc1cc(-c2ccc(C(F)(F)F)cc2)sc1-c1nc(-c2c(F)cccc2Cl)nn1C | 90%
Cc1cc(-c2ccc(F)c(Cl)c2)sc1-c1nc(-c2c(F)cccc2Cl)nn1C | 90%
CCOc1ccc(-c2sc(-c3nc(-c4c(F)cccc4Cl)nn3C)c(C)c2C)cc1 | 80%
CCOc1cccc(-c2cc(C)c(-c3nc(-c4c(F)cccc4Cl)nn3C)s2)c1 | <50%

====

# Test system: Tetranychus urticae
# procedure text: Insecticidal activity against female Tetranychus urticae (two-spotted spider mite) infested cotton leaf disks followed by 2.5 ppm compound spraying after oviposit assessed as insect mortality measured after 6 days post compound application under green house conditions
# Type: functional
# assay context: foliar, 144 h
measured metric: mortality at 2.5 ppm (%)

Cc1cc(-c2ccc(F)c(Cl)c2)sc1-c1nc(-c2c(F)cccc2Cl)nn1C | 60
Cn1nc(-c2c(F)cccc2Cl)nc1-c1sc(-c2ccc(Br)cc2)cc1Cl | 90
Cc1sc(-c2nc(-c3c(F)cccc3Cl)nn2C)c(C)c1-c1ccc(OC(F)(F)C(F)Br)cc1 (centres undefined) | 80
Cc1c(-c2nc(-c3c(F)cccc3Cl)nn2C)sc(-c2ccc(OC(F)(F)F)cc2)c1Br | 90
Cc1c(-c2ccc(OC(F)(F)F)cc2)csc1-c1nc(-c2c(F)cccc2Cl)nn1C | 90
CCOc1ccc(-c2sc(-c3nc(-c4c(F)cccc4Cl)nn3C)c(C)c2C)cc1 | 90
CCOc1ccc(-c2cc(C)c(-c3nc(-c4c(F)cccc4Cl)nn3C)s2)cc1 | 90
Cc1cc(Oc2ncc(C(F)(F)F)cc2Cl)sc1-c1nc(-c2c(F)cccc2Cl)nn1C | 90
Cc1sc(-c2nc(-c3c(F)cccc3Cl)nn2C)c(C)c1-c1ccc(OC(F)(F)C(F)Cl)cc1 (centres undefined) | 70

====

# Tested on: Trichoplusia ni
# procedure text: Insecticidal activity against Trichoplusia ni (cabbage looper) second-instar larvae infested on 400 ppm compound pre-treated cabbage leaf disk assessed as insect mortality measured 5 days post compound treatment under green house conditions
# Type: functional
# assay context: at 400 ppm
Listed here: items and their measured mortality.
measured metric: mortality (%)

Cc1cc(-c2ccc(Cl)c(F)c2)sc1-c1nc(-c2c(F)cccc2Cl)nn1C | 90
Cc1cc(-c2cccc(C(F)(F)F)c2F)sc1-c1nc(-c2c(F)cccc2Cl)nn1C | 90
Cc1c(-c2ccc(OC(F)(F)C(F)Cl)cc2)csc1-c1nc(-c2c(F)cccc2Cl)nn1C (centres undefined) | 70
Cn1nc(-c2c(F)cccc2Cl)nc1-c1sc(-c2ccc(OC(F)(F)C(F)Br)cc2)cc1Cl (centres undefined) | 70
Cn1nc(-c2c(F)cccc2Cl)nc1-c1sc(-c2ccc(C(F)(F)F)cc2)cc1Cl | 90
Cc1cc(-c2ccc3c(c2)COC3)sc1-c1nc(-c2c(F)cccc2Cl)nn1C | 70
Cc1cc(C2CCC(OC(F)(F)C(F)Cl)CC2)sc1-c1nc(-c2c(F)cccc2Cl)nn1C (centres undefined) | 90
Cc1c(-c2ccc(OC(F)(F)C(F)C(F)(F)F)cc2)csc1-c1nc(-c2c(F)cccc2Cl)nn1C (centres undefined) | 90
CCOc1ccc(-c2csc(-c3nc(-c4c(F)cccc4Cl)nn3C)c2C)cc1 | 90
Cc1c(-c2ccc(C(C)C)cc2)csc1-c1nc(-c2c(F)cccc2Cl)nn1C | 50
Cc1cc(-c2ccc3c(c2)OCCO3)sc1-c1nc(-c2c(F)cccc2Cl)nn1C | 80
COc1ccc(-c2csc(-c3nc(-c4c(F)cccc4F)nn3C)c2)cc1 | 80
Cc1c(-c2ccc(OC(F)(F)F)cc2)csc1-c1nc(-c2c(F)cccc2Cl)nn1C | 90
Cc1cc(-c2ccc(OC(F)(F)F)cc2)sc1-c1nc(-c2c(F)cccc2Cl)nn1C | 90
Cc1cc(-c2ccc(F)cc2)sc1-c1nc(-c2c(F)cccc2Cl)nn1C | 90
Cc1c(-c2ccc(OC(F)(F)F)cc2)sc(-c2nc(-c3c(F)cccc3Cl)nn2C)c1C | 90
